Consider the following compounds; for each one, report its IC50.
study_target: calcium-calmodulin dependent phosphodiesterase (CaM-PDE) (Bos taurus, UniProt P14100)
Construct: partially pure enzyme obtained from bovine aorta homogenates
method_notes: Phosphodiesterase Inhibition In Vitro: CaM-PDE
conditions: 1 μM 3H-cGMP substrate, pH 7.5, 25 minutes, room temperature, with calmodulin and CaCl2
Just so you know, I need the unit written after the number.

Respectfully, I request IC50 for each entry included below.
1. CN1C(=O)c2c(ncn2Cc2ccccc2)N2C1=N[C@@H]1CCCC[C@@H]12 (relative stereo)
2. Cc1nc2c([nH]1)C(=O)N(C)C1=N[C@@H]3CCC[C@@H]3N12 [Example 19a]
3. Cc1nc2c(n1Cc1ccccc1)C(=O)N(C)C1=NC3(CCCC3)CN12 [Example 34a]
4. Cc1nc2c(n1Cc1ccccc1)C(=O)N(C)C1=N[C@@H]3CCC[C@@H]3N12 (relative stereo) [Example 9]
5. Cc1nc2c(n1Cc1ccccc1)C(=O)N(C)C1=N[C@@H]3CCC[C@@H]3N12 [Example 10]
6. CN1C(=O)c2c(ncn2Cc2ccccc2)N2CC3(CCCC3)N=C12
7. CN1C(=O)c2c(ncn2Cc2ccc(Cl)cc2)N2C1=N[C@@H]1CCC[C@@H]12 (relative stereo)

1: 100 nM; 2: 3000 nM; 3: 300 nM; 4: 600 nM; 5: 300 nM; 6: 100 nM; 7: 3300 nM

Respectfully, I request IC50 for each entry included below.
1. CN1C(=O)c2c(ncn2Cc2ccccc2)N2C1=N[C@@H]1CCC[C@@H]12 (relative stereo) [Example 1]
2. Cc1nc2c(n1Cc1ccccc1)C(=O)N(C)C1=N[C@@H]3CCCCC[C@@H]3N12 (relative stereo)
3. CCc1nc2c(n1Cc1ccccc1)C(=O)N(C)C1=N[C@@H]3CCCC[C@@H]3N12 (relative stereo)
4. COC(=O)c1nc2c(n1Cc1ccccc1)C(=O)N(C)C1=N[C@@H]3CCC[C@@H]3N12 (relative stereo)
5. Cc1nc2c([nH]1)C(=O)N(C)C1=NC34CCCC3CCC4N12.Cl (single isomer, unassigned; (+)) [Example 41a, hydrochloride]
6. CN1C(=S)c2c(ncn2Cc2ccccc2)N2C1=N[C@@H]1CCC[C@@H]12 (relative stereo)
7. CN1C(=O)c2c(ncn2Cc2ccccc2)N2C1=N[C@@H]1CCC[C@@H]12 [Example 35]
8. CN1C(=O)c2c(ncn2CC2CCCCC2)N2C1=N[C@@H]1CCC[C@@H]12 (relative stereo)

["300 nM", "300 nM", "100 nM", "200 nM", "200 nM", "40 nM", "400 nM", "200 nM"]

Respectfully, I request IC50 for each entry included below.
1. Cc1nc2c(n1Cc1ccccc1)C(=O)N(C)C1=N[C@@H]3CCCC[C@@H]3N12 (relative stereo)
2. Cc1nc2c(n1Cc1ccccc1)C(=O)N(C)C1=NC34CCCC3CCC4N12 (single isomer, unassigned; (+))

1: 200 nM; 2: 100 nM

---

study_target: cGMP phosphodiesterase (cGMP-PDE) (Bos taurus, UniProt Q28156)
Consider the following molecules; for each one, report its IC50.
One number for each entry, in nM.

The following molecules have reported results that may help.
molecule	IC50 [nM]
CN1C(=O)c2c(ncn2Cc2ccccc2)N2C1=N[C@@H]1CCC[C@@H]12 (relative stereo) [Example 1]	400
CN1C(=O)c2c(ncn2Cc2ccccc2)N2C1=N[C@@H]1CCCC[C@@H]12 (relative stereo)	1400
Cc1nc2c([nH]1)C(=O)N(C)C1=NC34CCCC3CCC4N12.Cl (single isomer, unassigned; (+)) [Example 41a, hydrochloride]	100

Respectfully, I request IC50 for each entry included below.
1. CN1C(=O)c2c(ncn2Cc2ccc(Cl)cc2)N2C1=N[C@@H]1CCC[C@@H]12 (relative stereo)
2. Cc1nc2c(n1Cc1ccccc1)C(=O)N(C)C1=N[C@@H]3CCCCC[C@@H]3N12 (relative stereo)

1. 400
2. 900

Respectfully, I request IC50 for each entry included below.
1. COC(=O)c1nc2c(n1Cc1ccccc1)C(=O)N(C)C1=N[C@@H]3CCC[C@@H]3N12 (relative stereo)
2. CCc1nc2c(n1Cc1ccccc1)C(=O)N(C)C1=N[C@@H]3CCCC[C@@H]3N12 (relative stereo)
3. CN1C(=O)c2c(ncn2Cc2ccccc2)N2C1=N[C@@H]1CCC[C@@H]12 [Example 35]
4. CN1C(=O)c2c(ncn2CC2CCCCC2)N2C1=N[C@@H]1CCC[C@@H]12 (relative stereo)
5. Cc1nc2c(n1Cc1ccccc1)C(=O)N(C)C1=NC3(CCCC3)CN12 [Example 34a]
6. Cc1nc2c(n1Cc1ccccc1)C(=O)N(C)C1=N[C@@H]3CCCC[C@@H]3N12 (relative stereo)
7. Cc1nc2c([nH]1)C(=O)N(C)C1=N[C@@H]3CCC[C@@H]3N12 [Example 19a]

1. 200
2. 3000
3. 300
4. 200
5. 800
6. 200
7. 300

---

Record type: pIC50 measurement. Applies to: cGMP phosphodiesterase (cGMP-PDE) (Bos taurus)
Numbers only, as −log10 of the molar value.

compound	numeric_readout
Cc1nc2c(n1Cc1ccccc1)C(=O)N(C)C1=NC34CCCC3CCC4N12 (single isomer, unassigned; (+)) [Example 39]	7.00

Respectfully, I request pIC50 for each entry included below.
1. CN1C(=S)c2c(ncn2Cc2ccccc2)N2C1=N[C@@H]1CCC[C@@H]12 (relative stereo) [Example 20]
2. CN1C(=O)c2c(ncn2Cc2ccccc2)N2CC3(CCCC3)N=C12 [Example 34]

1: 6.40; 2: 7.00

Numbers sourced from patent US5393755A.
